From: patent US20260125397A1

DC50 values by entry
# TARGET_OR_TEST_SYSTEM: MK2 (Homo sapiens)
# Sequence (P49137 whole entry): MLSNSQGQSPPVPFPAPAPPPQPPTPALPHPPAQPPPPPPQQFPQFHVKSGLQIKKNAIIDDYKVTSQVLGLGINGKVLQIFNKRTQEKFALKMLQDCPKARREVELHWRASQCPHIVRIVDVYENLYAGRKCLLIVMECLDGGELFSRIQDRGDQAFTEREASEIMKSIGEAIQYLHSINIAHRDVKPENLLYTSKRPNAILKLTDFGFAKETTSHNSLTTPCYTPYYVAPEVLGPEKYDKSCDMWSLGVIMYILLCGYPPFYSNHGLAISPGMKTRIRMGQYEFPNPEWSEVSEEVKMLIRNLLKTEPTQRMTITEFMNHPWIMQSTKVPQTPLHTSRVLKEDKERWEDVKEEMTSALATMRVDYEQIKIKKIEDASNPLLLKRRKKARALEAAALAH
# TEST_NAME: MK2 degradation in human THP-1 monocytic cells (MSD, 24 h)
# Format: cell-based
# Set-up: endogenous in cells
# MEASUREMENT_CONDITIONS: THP-1 cells, read-out: MK2 MSD THP-1 degradation 24 h GMean External Abs DC50
PARAMETER: DC50

1. C[C@@H]1CNc2c(sc3ccc4nc(N5CCN(CCC6CC7(CCN(C(=O)c8ccc(Cl)c(N9CCC(=O)NC9=O)c8)CC7)C6)CC5)ccc4c23)C(=O)N1 [I-35] = < 1 nM
2. Cn1c(=O)n(C2CCC(=O)NC2=O)c2ccc(N3CC(CN4CCN(c5ccc(-c6nccc(-c7cc8c([nH]7)C7(CC7)CNC8=O)n6)cc5OC5CC5)CC4)C3)cc21 (centres unmarked) [I-47] = < 1 nM
3. C[C@@H]1CNc2c(sc3ccc4nc(N5CCN(CC6CCC7(CC6)CN(c6ccc8c(N9CCC(=O)NC9=O)cncc8c6)C7)CC5)ccc4c23)C(=O)N1 [I-23] = < 1 nM
4. C[C@@H]1CNc2c(sc3ccc4nc(N5CCC(CN6CCC7(CC6)CN(c6ccc8c(c6)n(C)c(=O)n8C6CCC(=O)N(C)C6=O)C7)CC5)ccc4c23)C(=O)N1 (some centres unmarked) [I-52] = > 100 nM
5. COc1cc(-c2nccc(-c3cc4c([nH]3)C3(CC3)CNC4=O)n2)ccc1N1CCN(CC2CN(c3ccc4c(c3)n(C)c(=O)n4C3CCC(=O)NC3=O)C2)CC1 (centres unmarked) [I-54] = < 1 nM
6. Cn1c(=O)n(C2CCC(=O)NC2=O)c2ccc(C#CCN3CCN(c4ccc(-c5nccc(-c6cc7c([nH]6)C6(CC6)CNC7=O)n5)cc4)CC3)cc21 (centres unmarked) [I-41] = < 1 nM
7. Cn1c(=O)n(C2CCC(=O)NC2=O)c2cccc(-n3ccc(N4CCN(c5ccc(-c6nccc(-c7cc8c([nH]7)C7(CCCC7)CNC8=O)n6)cc5)CC4)c3)c21 (centres unmarked) [I-32] = > 100 nM
8. C[C@@H]1CNc2c(sc3ccc4nc(N5CC[C@H](N(C)C6CC7(CCN(c8ccc9c(c8)n(C)c(=O)n9C8CCC(=O)NC8=O)CC7)C6)C(F)(F)C5)ccc4c23)C(=O)N1 (some centres unmarked) [I-21] = < 1 nM
